# System: recombinant cellobiose 2-epimerase
# methodDescription: Substrate specificity of cellobiose 2-epimerase by TLC
# Format: biochemical, Caldicellulosiruptor saccharolyticus ATCC43494
# Set-up: key: −: No product is detected; ±: Some products are slightly detected; +: Some products are detected; ++: Some products are clearly detected
# cond: 2% (w/w) substrate, MOPS buffer pH 8.0, 500 units/g-substrate, 60° C., 24 hours; product spot on TLC
outcomeMeasure: Action

OC[C@H]1O[C@H](OC[C@H]2O[C@H](O[C@H]3[C@H](O)[C@@H](O)C(O)O[C@@H]3CO)[C@H](O)[C@@H](O)[C@@H]2O)[C@H](O)[C@@H](O)[C@@H]1O (stereo partly shown)    −
O=C[C@H](O)[C@@H](O)[C@@H](O)[C@H](O)CO    ±
O=C(CO)[C@H](O)[C@H](O)[C@H](O)CO    −
OC[C@@H](O)[C@@H](O[C@H]1O[C@H](CO)[C@@H](O[C@H]2O[C@H](CO)[C@@H](O)[C@H](O)[C@H]2O)[C@H](O)[C@H]1O)[C@H](O)[C@@H](O)CO    −

###

# System: recombinant cellobiose 2-epimerase
# methodDescription: Substrate specificity of cellobiose 2-epimerase by TLC
# Format: biochemical, Caldicellulosiruptor saccharolyticus ATCC43494
# Design: key: −: No product is detected; ±: Some products are slightly detected; +: Some products are detected; ++: Some products are clearly detected
# cond: 2% (w/w) substrate, MOPS buffer pH 8.0, 500 units/g-substrate, 60° C., 24 hours; product spot on TLC
outcomeMeasure: Action

// below: answered compounds
N[C@H]1C(O)O[C@H](CO)[C@@H](O)[C@@H]1O (stereo partly drawn) [D-Glucosamine]    −
OC[C@H]1O[C@H](O[C@H]2[C@H](O)[C@@H](O)[C@@H](O[C@H]3[C@H](O)[C@@H](O)[C@@H](O[C@H]4[C@H](O)[C@@H](O)C(O)O[C@@H]4CO)O[C@@H]3CO)O[C@@H]2CO)[C@H](O)[C@@H](O)[C@@H]1O (stereo partly shown) [Maltotetraose]    ±
OC[C@H]1O[C@H](O[C@H]2O[C@H](CO)[C@@H](O)[C@H](O)[C@H]2O)[C@H](O)[C@@H](O)[C@@H]1O [Trehalose]    −
O=C[C@H](O)[C@@H](O)[C@H](O)[C@H](O)CO [D-Glucose]    +

Reported Action ( CC(=O)N[C@H]1C(O)O[C@H](CO)[C@@H](O)[C@@H]1O (stereo partly shown) [N-Acetyl-glucosamine] ) = −

Reported Action ( O=C(CO)[C@@H](O)[C@H](O)[C@@H](O)CO [L-Sorbose] ) = −

Reported Action ( O=C[C@H](O)[C@H](O)[C@H](O)[C@H](O)CO [D-Allose] ) = −

###

# System: cellobiose 2-epimerase
# methodDescription: Effect of metal ions on the epimerase activity
# Type: biochemical, Caldicellusiruptor saccharolyticus ATCC43494
# cond: metal salt 1 mM; None = 100
outcomeMeasure: Relative activity (%)
Reply with just the number (in %).

// below: answered compounds
[Cl][Mn][Cl]    104
[Cl][Ni][Cl]    103
[Cl][Fe][Cl]    35

Next:
Reported Relative activity (%) ( `[Cl][Pb][Cl]` ) = 36

###

# System: recombinant cellobiose 2-epimerase
# methodDescription: Substrate specificity of cellobiose 2-epimerase by TLC
# Type: biochemical, Caldicellulosiruptor saccharolyticus ATCC43494
# Design: key: −: No product is detected; ±: Some products are slightly detected; +: Some products are detected; ++: Some products are clearly detected
# cond: 2% (w/w) substrate, MOPS buffer pH 8.0, 500 units/g-substrate, 60° C., 24 hours; product spot on TLC
outcomeMeasure: Action

OC[C@H]1O[C@H](O[C@H]2[C@H](O)[C@@H](O)[C@H](O)O[C@@H]2CO)[C@H](O)[C@@H](O)[C@@H]1O    +
OC[C@H]1O[C@H](O[C@H]2[C@H](O)[C@@H](O)[C@@H](OC[C@H]3OC(O)[C@H](O)[C@@H](O)[C@@H]3O)O[C@@H]2CO)[C@H](O)[C@@H](O)[C@@H]1O (stereo partly shown)    −
CO[C@@H]1O[C@H](CO)[C@@H](O)[C@H](O)[C@H]1O [Methyl-β-glucoside]    −
O=C[C@H](O)[C@H](O)[C@H](O)CO    −
OC[C@H]1O[C@@H](O[C@H]2[C@H](O)[C@@H](O)C(O)O[C@@H]2CO)[C@H](O)[C@@H](O)[C@H]1O (stereo partly shown)    ++

Reported Action ( `OC[C@H]1O[C@@](CO)(O[C@H]2O[C@H](CO)[C@@H](O[C@H]3O[C@H](CO)[C@@H](O)[C@H](O)[C@H]3O)[C@H](O)[C@H]2O)[C@@H](O)[C@@H]1O` ) = −

Reported Action ( `O=C[C@H](O)[C@@H](O)[C@H](O)[C@H](O)C(=O)O` ) = −

###

# Tested on: recombinant cellobiose 2-epimerase
# methodDescription: Substrate specificity of cellobiose 2-epimerase by TLC
# Type: biochemical, Caldicellulosiruptor saccharolyticus ATCC43494
# Set-up: key: −: No product is detected; ±: Some products are slightly detected; +: Some products are detected; ++: Some products are clearly detected
# cond: 2% (w/w) substrate, MOPS buffer pH 8.0, 500 units/g-substrate, 60° C., 24 hours; product spot on TLC
outcomeMeasure: Action

// below: answered compounds
O=C[C@H](O)[C@@H](O)[C@H](O[C@@H]1O[C@H](CO)[C@@H](O)[C@H](O)[C@H]1O)[C@H](O)CO    ++
O=C(CO)[C@@H](O)[C@@H](O)[C@H](O)CO    ±
O=C(CO)[C@@H](O)[C@H](O)[C@H](O)CO    ±
OC[C@H]1O[C@@H](O[C@H]2[C@H](O)[C@@H](O)[C@H](O[C@H]3[C@H](O)[C@@H](O)C(O)O[C@@H]3CO)O[C@@H]2CO)[C@H](O)[C@@H](O)[C@@H]1O (some centres unmarked)    ++
OC[C@H]1O[C@H](OC[C@H]2OC(O)[C@H](O)[C@@H](O)[C@@H]2O)[C@H](O)[C@@H](O)[C@@H]1O (some centres unmarked)    −

Reported Action ( OC[C@H]1O[C@H](O[C@H]2C(O)O[C@H](CO)[C@@H](O)[C@@H]2O)[C@H](O)[C@@H](O)[C@@H]1O (some centres unmarked) ) = −

Reported Action ( OC[C@H]1O[C@H](OC[C@H]2O[C@H](OC[C@H]3OC(O)[C@H](O)[C@@H](O)[C@@H]3O)[C@H](O)[C@@H](O)[C@@H]2O)[C@H](O)[C@@H](O)[C@@H]1O (some centres unmarked) ) = −

Reported Action ( OC[C@H]1O[C@H](O[C@H]2[C@H](O)[C@@H](CO)OC(O)[C@@H]2O)[C@H](O)[C@@H](O)[C@@H]1O (some centres unmarked) ) = −

Reported Action ( `C[C@H](O)[C@H](O)[C@@H](O)[C@@H](O)C=O` ) = −

Reported Action ( OC[C@H]1O[C@@H](O[C@H]2[C@H](O)[C@@H](O)[C@H](O[C@H]3[C@H](O)[C@@H](O)[C@H](O[C@H]4[C@H](O)[C@@H](O)C(O)O[C@@H]4CO)O[C@@H]3CO)O[C@@H]2CO)[C@H](O)[C@@H](O)[C@@H]1O (some centres unmarked) ) = ++

Reported Action ( CC(=O)N[C@H]1C(O)O[C@H](CO)[C@H](O)[C@@H]1O (some centres unmarked) ) = −

###

# Test system: cellobiose 2-epimerase
# methodDescription: Effect of metal ions on the epimerase activity
# Assay type: biochemical, Caldicellusiruptor saccharolyticus ATCC43494
# cond: 1 mM
outcomeMeasure: Inhibition of the epimerase activity by metal ion

[Cl][Pb][Cl]    inhibited
[Cl][Al]([Cl])[Cl]    inhibited

###

# Tested on: recombinant cellobiose 2-epimerase
# methodDescription: Substrate specificity of cellobiose 2-epimerase by TLC
# Format: biochemical, Caldicellulosiruptor saccharolyticus ATCC43494
# cond: summary of Table 3
outcomeMeasure: Action of the enzyme on the saccharide

O=C(CO)[C@@H](O)[C@H](O)[C@H](O)CO    slightly acted on
O=C(CO)[C@@H](O)[C@@H](O)[C@H](O)CO    slightly acted on
O=C[C@H](O)[C@@H](O)[C@H](O)[C@H](O)CO    acted on
O=C[C@@H](O)[C@@H](O)[C@H](O)[C@H](O)CO    acted on

###

# System: recombinant cellobiose 2-epimerase
# methodDescription: Substrate specificity of cellobiose 2-epimerase by TLC
# Type: biochemical, Caldicellulosiruptor saccharolyticus ATCC43494
# cond: summary of Table 3
outcomeMeasure: Action of the enzyme on the saccharide

OC[C@H]1O[C@H](O[C@H]2[C@H](O)[C@@H](O)[C@@H](O[C@H]3[C@H](O)[C@@H](O)[C@@H](O[C@H]4[C@H](O)[C@@H](O)C(O)O[C@@H]4CO)O[C@@H]3CO)O[C@@H]2CO)[C@H](O)[C@@H](O)[C@@H]1O (stereo partly drawn)    slightly acted on
O=C[C@H](O)[C@@H](O)[C@@H](O)[C@H](O)CO    slightly acted on

All figures here come from patent US9175282B2.
